experiment: Toxicity liver stage against HepG2, at 10uM; format: cell-based; set-up: test concentration 10 uM, cell line HepG2-A16-CD81EGFP; details: human, HepG2-A16-CD81EGFP cells; read-out: INHIBITION
Examples of molecules with documented cytotoxicity at 10 µM follow.
Put down the number, then write its unit next to it.

> print(dat)
                                   molecule       measurement.type  result
1  CSCC(C)N(C)C(=O)CN1CCN(c2ccccn2)CC1 (configuration not stated)  cytotoxicity at 10 µM  -7.59%
2      CS(=O)(=O)c1snnc1C1CCN(Cc2cccnc2)CC1  cytotoxicity at 10 µM  -11.2%

cytotoxicity at 10 µM recorded for this molecule, COc1ccc(C(=O)NS(=O)(=O)c2ccc(C#N)cc2C(F)(F)F)cc1 , is -10.5%

// sample COc1cccc(OCc2nnc3n2N=C(C(C)(C)C)CS3)c1 , its cytotoxicity at 10 µM was 4.4%

Quick note, cytotoxicity at 10 µM for Cc1ccccc1CN1CCN(C(=O)CCn2ccccc2=O)CC1 landed at 3.57%

// CN1CC[C@H]2[C@H](C[C@@H](Cn3cncn3)N2c2nccs2)C1 : cytotoxicity at 10 µM value = -144%

Lab book: cytotoxicity at 10 µM of COCC1c2c(cnn2C)CCN1C(=O)c1ccc2c(c1)OCO2 (configuration not stated) noted as 3.74%

Value source: ChEMBL document CHEMBL4513216
